biological target: Phosphatidylinositol 4,5-bisphosphate 3-kinase catalytic subunit beta isoform (Homo sapiens, UniProt P42338); experiment: Inhibition of PI3Kbeta-mediated AKT phosphorylation at Ser473 in PTEN-deficient human MDA-MB-468 cells after 30 mins
Sequence (P42338 whole entry, canonical isoform): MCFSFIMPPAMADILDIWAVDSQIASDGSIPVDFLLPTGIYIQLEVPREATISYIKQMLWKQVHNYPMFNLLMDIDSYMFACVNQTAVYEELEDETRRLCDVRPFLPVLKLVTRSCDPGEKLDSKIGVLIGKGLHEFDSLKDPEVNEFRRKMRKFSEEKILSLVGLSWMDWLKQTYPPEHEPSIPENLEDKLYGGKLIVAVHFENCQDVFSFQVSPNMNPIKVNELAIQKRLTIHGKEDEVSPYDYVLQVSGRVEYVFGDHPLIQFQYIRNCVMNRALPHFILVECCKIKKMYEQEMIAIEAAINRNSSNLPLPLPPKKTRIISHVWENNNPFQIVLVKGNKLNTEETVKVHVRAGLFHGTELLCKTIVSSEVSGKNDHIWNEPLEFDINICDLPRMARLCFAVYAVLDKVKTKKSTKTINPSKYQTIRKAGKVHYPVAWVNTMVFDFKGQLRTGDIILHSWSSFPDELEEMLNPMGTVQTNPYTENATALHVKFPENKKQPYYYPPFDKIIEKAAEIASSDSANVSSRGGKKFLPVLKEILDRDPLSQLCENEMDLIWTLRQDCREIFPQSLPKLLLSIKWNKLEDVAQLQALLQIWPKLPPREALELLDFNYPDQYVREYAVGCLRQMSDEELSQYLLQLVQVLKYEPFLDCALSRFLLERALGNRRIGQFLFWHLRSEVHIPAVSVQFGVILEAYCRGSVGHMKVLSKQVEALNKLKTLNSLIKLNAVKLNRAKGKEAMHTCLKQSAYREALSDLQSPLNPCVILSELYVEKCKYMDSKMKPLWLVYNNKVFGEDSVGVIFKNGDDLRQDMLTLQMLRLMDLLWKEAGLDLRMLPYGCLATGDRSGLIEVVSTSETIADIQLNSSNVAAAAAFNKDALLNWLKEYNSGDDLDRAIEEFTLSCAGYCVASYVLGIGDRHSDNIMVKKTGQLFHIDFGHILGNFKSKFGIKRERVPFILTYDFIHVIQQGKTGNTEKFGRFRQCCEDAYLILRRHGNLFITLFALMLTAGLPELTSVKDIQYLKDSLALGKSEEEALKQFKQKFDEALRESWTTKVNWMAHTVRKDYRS
PROPERTY: pIC50
Scale explanation: pIC50 corresponds to minus log10 of a concentration expressed in moles per litre.

What does the record list as pIC50 for `Cc1c(Cl)cccc1Cn1c(C)nc2c(C(=O)O)cc(N3CCOCC3)nc21` ?
7.80

`Cc1c(Cn2c(C)nc3c(C(=O)O)cc(N4CCOCC4)nc32)cccc1C(F)(F)F` , same question.
6.36

`Cc1nc2c(C(=O)O)cc(N3CCOCC3)nc2n1Cc1cccc(Cl)c1Cl` , same question.
7.38

Values were extracted from ChEMBL document CHEMBL2429847.
